Kindly state clearance for each of the entries shown.
# assay-text: Pharmacokinetic evaluation in BALB/c mice after intravenous and oral administration
# Type: in vivo
# assay-setup: mouse, plasma; BALB/c mice (female), single intravenous injection and oral administration; read-out: Clearance rate
Reply numerically in mL/min/kg, unit not repeated.

Tell me measured clearance for C=CCn1c(=O)c2cnc(Nc3ccc(N4CCC5(CCN(C)CC5)CC4)cc3)nc2n1-c1cccc(C(C)(C)O)n1 please.
51

Tell me measured clearance for C=CCn1c(=O)c2cnc(Nc3ccc(N4CCC5(CCN(C)CC5)CC4)cc3)nc2n1-c1cccc(C2(F)COC2)n1 please.
23

Tell me measured clearance for C=CCn1c(=O)c2cnc(Nc3ccc(N4CCN(C)CC4)cc3)nc2n1-c1cccc(C(C)(C)O)n1 [AZD1775, reference compound] please.
85.7

Tell me measured clearance for C=CCn1c(=O)c2cnc(Nc3ccc(N4CCC5(CCN(C)CC5)CC4)cc3)nc2n1-c1cccc(C(=O)N(C)C)n1 please.
57.1

* * *

# assay-text: Tissue distribution (PK) in BALB/c nude mice bearing human colon cancer LoVo xenografts
# Assay type: in vivo
# assay-setup: mouse, pancreas, LoVo xenograft mice, oral 40 mg/kg twice a day for three weeks, after last administration
Kindly state AUC(0-t) for each of the entries shown.

Tell me measured AUC(0-t) for C=CCn1c(=O)c2cnc(Nc3ccc(N4CCN(C)CC4)cc3)nc2n1-c1cccc(C(C)(C)O)n1 [AZD1775, reference compound] please.
55.5 µM·h

Tell me measured AUC(0-t) for C=CCn1c(=O)c2cnc(Nc3ccc(N4CCC5(CCN(C(C)=O)CC5)CC4)cc3)nc2n1-c1cccc(C(C)(C)O)n1 [Embodiment 30] please.
253 µM·h

* * *

# assay-text: Tissue distribution (PK) in BALB/c nude mice bearing human colon cancer LoVo xenografts
# Assay type: in vivo
# assay-setup: mouse, plasma, LoVo xenograft mice, oral 40 mg/kg twice a day for three weeks, after last administration
recorded-endpoint: Cmax

Tell me measured Cmax for C=CCn1c(=O)c2cnc(Nc3ccc(N4CCC5(CCN(C(C)=O)CC5)CC4)cc3)nc2n1-c1cccc(C(C)(C)O)n1 please.
4.27 µM

Tell me measured Cmax for C=CCn1c(=O)c2cnc(Nc3ccc(N4CCN(C)CC4)cc3)nc2n1-c1cccc(C(C)(C)O)n1 [AZD1775, reference compound] please.
3.07 µM

* * *

# assay-text: Tissue distribution (PK) in BALB/c nude mice bearing human colon cancer LoVo xenografts
# Assay type: in vivo
# assay-setup: mouse, plasma, LoVo xenograft mice, oral 40 mg/kg twice a day for three weeks, after last administration
# Experimental: (1) In vivo PD study of the compound used on tumors of human colon cancer LoVo cells subcutaneously xenografted to BALB/c nude mice model […] Human colon cancer LoVo cells, monolayer-cultured in vitro, culturing condition was Ham's F-12 medium supplemented with 10% fetal bovine serum, 100 U/mL penicillin, 100 μg/mL streptomycin and 2 mM glutamine, 37° C., 5% CO2. […] When the cell saturation reached 80%-90%, the cells were collected, counted, and inoculated. […]
Kindly state Tmax for each of the entries shown.
Reply numerically in h, unit not repeated.

Tell me measured Tmax for C=CCn1c(=O)c2cnc(Nc3ccc(N4CCN(C)CC4)cc3)nc2n1-c1cccc(C(C)(C)O)n1 [AZD1775, reference compound] please.
0.5

Tell me measured Tmax for C=CCn1c(=O)c2cnc(Nc3ccc(N4CCC5(CCN(C(C)=O)CC5)CC4)cc3)nc2n1-c1cccc(C(C)(C)O)n1 please.
2

Recorded values, source patent US10954253B2.
